Entry source: patent US10597674B2

Let's look at some molecules and their measured Residual BCF OD440nm [%].
System: E. coli cells expressing an HPPD polypeptide
Assay: Brown color bioassay in liquid culture, residual brown color formation (BCF), OD440 after 96 hours
Format: cell-based
Details: brown color formation with Cmpd. 1 (1000 μM) relative to without, after 96 hours

{"columns": ["molecule", "Residual BCF OD440nm [%] / %"],
 "data": [
  ["56 (protein, mutant HPPD polypeptide) MADLYENPMGLMGFEFIEFASPTPGTLEPIFEIMGFTKVATHRSKNVHLYRQGEINLILNNEPNSIASYFAAEHGPSVCGMAFRVKDSQKAYNRALELGAQPIHIDTGPMELNLPAIKGIGGAPLYLIDRFGEGSSIYDIDFVYLEGVERNPVGAGLKVIDHLTHNVYRGRMVYWANFYEKLFNFREARYFDIKGEYTGLTSKAMSAPDGMIRIPLNEESSKGAGQIEEFLMQFNGEGIQHVAFLTDDLVKTWDALKKIGMRFMTAPGDEYYEMLEGRLPDHGEPVDQLQARGILLDGSSVEGDKRLLLQIFSETLMGPVFFEFIQRKGDDGFGPDSFRVLFESVERDQVRRGVLTAD", 68],
  ["67 (protein, mutant HPPD polypeptide) MADLYENPMGLMGFEFIEFASPTPGTLEPIFEIMGFTKVATHRSKNVHLYRQGEINLILNNEPNSIASYFAAEHGPSVCGMAFRVKDSQKAYNRALELGAQPIHIDTGPMELNLPAIKGIGGAPLYLIDRFGEGSSIYDIDFVYLEGVERNPVGAGLKVIDHLTHNVYRGRMVYWANFYEKLFNFREARYFDIKGEYTGLTSKAMSAPDGMIRIPLNEESSKGAGQIEEFLMQFNGEGIQHVAFLTDDLVKTWDALKKIGMRFKTAPGDEYYEMLEGRLPDHGEPVDQLQARGILLDGSSVEGDKRLLLQIFSETLMGPVFFEFIQRKGDDGFGPDSFKVLFESVERDQVRRGVLTAD", 71]
]}
